These data points were gathered from patent US9096601B2.

Test system: squamous cell carcinoma cell strain A431
Experiment: In-vitro tumor cell proliferation inhibition, MTT
Assay type: cell-based, human
Settings: 72 hours

# compound, units.label, readout.relation, IC50
rows = [
    ("COCCOc1ccc(Nc2ncc3nc(Nc4ccccc4)n(C4CCCC4)c3n2)cc1 [Compounds 8-56]", "µM", ">", 10),
    ("CC(C)n1c(Nc2ccccc2)nc2cnc(Nc3ccc(C(=O)NN4CCN(C)CC4)cc3)nc21 [Compound 8-1]", "µM", "=", 2.06),
    ("CN1CCN(c2ccc(Nc3ncc4nc(Nc5cccc([N+](=O)[O-])c5)n(C5CCCC5)c4n3)cc2)CC1 [Compounds 8-44]", "µM", "=", 0.409),
    ("C=CC(=O)Nc1cccc(Nc2ncc3nc(Nc4ccccc4)n(C(C)C)c3n2)c1 [Compounds 8-38]", "µM", "=", 0.179),
    ("CN1CCN(c2ccc(Nc3ncc4nc(Nc5ccc(Br)cc5F)n(C5CCCC5)c4n3)cc2)CC1 [Compounds 8-47]", "µM", "=", 0.299),
    ("CN1CCN(c2ccc(Nc3ncc4nc(Nc5ccccc5)n(C5CC5)c4n3)cc2)CC1 [Compounds 8-23]", "µM", "=", 7.04),
    ("C#Cc1cccc(Nc2nc3cnc(Nc4ccc(N5CCN(C)CC5)cc4)nc3n2C(C)C)c1 [Compounds 8-12]", "µM", "=", 2.57),
    ("CN1CCN(c2ccc(Nc3ncc4nc(Nc5ccccc5)n(C5CCCC5)c4n3)cc2)CC1 [Compounds 8-26]", "µM", "=", 1.05),
    ("c1ccc(Nc2nc3cnc(Nc4ccc(CN5CCOCC5)cc4)nc3n2C2CCCC2)cc1 [Compounds 8-48]", "µM", "=", 0.788),
    ("CN1CCN(c2ccc(Nc3ncc4nc(Nc5ccccc5)[nH]c4n3)cc2)CC1 [Compounds 8-25]", "µM", ">", 10),
    ("CC(C)n1c(Nc2ccccc2)nc2cnc(Nc3ccc(N4CCN(C)CC4)cc3)nc21 [Compounds 8-10]", "µM", "=", 1.58),
    ("CC(C)n1c(Nc2ccc(Br)cc2)nc2cnc(Nc3ccc(N4CCN(C)CC4)cc3)nc21 [Compounds 8-15]", "µM", "=", 9.4),
    ("CN1CCN(NC(=O)c2ccc(Nc3ncc4nc(Nc5cccnc5)n(C5CCCC5)c4n3)cc2)CC1 [Compounds 8-37]", "µM", ">", 10),
    ("CC(C)n1c(Nc2ccc(NC(=O)Nc3ccc(F)c(Cl)c3)cc2)nc2cnc(Nc3ccc(N4CCN(C)CC4)cc3)nc21 [Compounds 8-21]", "µM", "=", 5.72),
    ("CC(C)n1c(Nc2ccc(F)c(Cl)c2)nc2cnc(Nc3ccc(C(=O)NN4CCN(C)CC4)cc3)nc21 [Compound 8-2]", "µM", "=", 9.29),
    ("COc1ccc(Nc2nc3cnc(Nc4ccc(N5CCN(C)CC5)cc4)nc3n2C(C)C)cc1 [Compounds 8-18]", "µM", "=", 6.35),
]

----------
Target: FLT3 (Homo sapiens (Human), UniProt P36888)
Sequence (P36888 27-993): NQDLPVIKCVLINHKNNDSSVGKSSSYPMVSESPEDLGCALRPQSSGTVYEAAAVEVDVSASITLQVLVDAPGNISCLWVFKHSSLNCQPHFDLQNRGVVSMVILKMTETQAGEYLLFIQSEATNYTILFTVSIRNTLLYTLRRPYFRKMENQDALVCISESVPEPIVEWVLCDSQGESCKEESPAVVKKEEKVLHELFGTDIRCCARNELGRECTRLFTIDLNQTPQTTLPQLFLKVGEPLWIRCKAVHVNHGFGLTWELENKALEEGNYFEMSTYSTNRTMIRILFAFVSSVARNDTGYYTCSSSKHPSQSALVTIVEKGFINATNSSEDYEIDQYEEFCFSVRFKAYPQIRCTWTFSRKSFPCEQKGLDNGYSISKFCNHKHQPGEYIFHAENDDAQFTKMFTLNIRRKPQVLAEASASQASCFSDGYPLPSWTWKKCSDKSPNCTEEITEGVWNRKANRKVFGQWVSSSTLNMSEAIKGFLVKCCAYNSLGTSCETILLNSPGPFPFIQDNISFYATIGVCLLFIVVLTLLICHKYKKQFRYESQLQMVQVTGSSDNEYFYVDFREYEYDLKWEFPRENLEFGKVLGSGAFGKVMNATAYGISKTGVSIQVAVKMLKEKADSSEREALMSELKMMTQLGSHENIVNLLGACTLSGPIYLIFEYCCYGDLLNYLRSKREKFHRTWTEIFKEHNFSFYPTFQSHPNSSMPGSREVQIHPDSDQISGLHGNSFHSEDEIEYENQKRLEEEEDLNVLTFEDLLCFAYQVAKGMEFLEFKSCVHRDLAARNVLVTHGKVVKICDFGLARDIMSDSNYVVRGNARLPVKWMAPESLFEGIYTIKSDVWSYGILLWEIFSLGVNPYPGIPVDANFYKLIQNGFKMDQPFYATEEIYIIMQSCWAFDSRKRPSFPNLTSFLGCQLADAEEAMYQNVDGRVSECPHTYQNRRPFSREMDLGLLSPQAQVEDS
Assay: Kinase inhibitory activity, isotopic labeling (γ-33P-ATP)
Format: biochemical
Conditions: compound at 10 μM
The kinase activity inhibitory rate (%) by the tested compounds at 10 μM FLT3 reference
endpoint.label: The kinase activity inhibitory rate (%) by the tested compounds at 10 μM FLT3

# smiles.str, test.value
rows = [
    ("CC(C)n1c(Nc2cccc(Br)c2)nc2cnc(Nc3ccc(N4CCN(C)CC4)cc3)nc21", 67),
    ("COc1ccc(Nc2nc3cnc(Nc4ccc(N5CCN(C)CC5)cc4)nc3n2C(C)C)cc1", 75),
    ("CC(C)n1c(Nc2ccc(NC(=O)Nc3ccc(F)c(Cl)c3)cc2)nc2cnc(Nc3ccc(N4CCN(C)CC4)cc3)nc21", 78),
    ("C=CC(=O)Nc1cccc(Nc2ncc3nc(Nc4ccccc4)n(C(C)C)c3n2)c1", 86),
    ("CN1CCN(c2ccc(Nc3ncc4nc(Nc5ccccc5)[nH]c4n3)cc2)CC1", 32),
    ("C#Cc1cccc(Nc2nc3cnc(Nc4ccc(N5CCN(C)CC5)cc4)nc3n2C(C)C)c1", 56),
    ("CC(C)n1c(Nc2ccc(F)c(Cl)c2)nc2cnc(Nc3ccc(N4CCN(C)CC4)cc3)nc21", 89),
    ("CN1CCN(c2ccc(Nc3ncc4nc(Nc5ccccc5)n(C5CCCC5)c4n3)cc2)CC1", 86),
]
